- Tested on: K562
- assay explanation: Antiproliferative activity against human K562 cells assessed as inhibition of cell proliferation measured after 72 hrs by MTT assay
- Type: functional, cell-based
- condition notes: K562, 72 h
Consider the following compounds; for each one, report its IC50.
Provide only the numeric value, understood in µM.

Query: Query (compound): O=C(Nc1ncc(Cc2ccccc2)s1)c1ccc(-n2cnnn2)cc1 ; field requested: IC50
Response: 8.3

Query: Query (compound): Cc1ccc(Cc2cnc(NC(=O)c3ccc(-n4cnnn4)cc3)s2)cc1 ; field requested: IC50
Response: 8

Query: Query (compound): O=C(/C=C/c1ccc(-n2cnnn2)cc1)Nc1ncc(Cc2ccccc2)s1 ; field requested: IC50
Response: 1.05

----------
- assay explanation: Antiproliferative activity against J774.2 cells assessed as inhibition of cell proliferation measured after 72 hrs by MTT assay
- Format: toxicity, cell-based
- condition notes: mouse
Consider the following compounds; for each one, report its IC50 at 72 h.
Provide only the numeric value, understood in µM.

Query: Query (compound): COc1ccc(Cc2cnc(NC(=O)c3ccc(-n4cnnn4)cc3)s2)cc1 ; field requested: IC50 at 72 h
Response: 8.22

Query: Query (compound): O=C(Nc1ncc(Cc2ccccc2)s1)c1ccc(-n2cnnn2)cc1 ; field requested: IC50 at 72 h
Response: 48.1

Query: Query (compound): Cc1nnnn1-c1ccc(C(=O)Nc2ncc(Cc3ccccc3)s2)cc1 ; field requested: IC50 at 72 h
Response: 3.61

Query: Query (compound): O=C(Nc1ncc(Cc2ccccc2)s1)c1ccc(-n2cnnn2)cc1O ; field requested: IC50 at 72 h
Response: 22.2

Query: Query (compound): Cc1cccc(Cc2cnc(NC(=O)c3cccc(-n4cnnn4)c3)s2)c1 ; field requested: IC50 at 72 h
Response: 52.8

Query: Query (compound): O=C(Nc1ncc(Cc2cccc(C(F)(F)F)c2)s1)c1ccc(-n2cnnn2)cc1 ; field requested: IC50 at 72 h
Response: 43.2

Query: Query (compound): O=C(Nc1ncc(Cc2cc(Cl)ccc2Cl)s1)c1ccc(-n2cnnn2)cc1 ; field requested: IC50 at 72 h
Response: 34.7

Query: Query (compound): Cc1cccc(Cc2cnc(NC(=O)c3ccc(-n4cnnn4)cc3)s2)c1 ; field requested: IC50 at 72 h
Response: 43.2

Query: Query (compound): O=C(Nc1ncc(Cc2ccc(F)cc2)s1)c1ccc(-n2cnnn2)cc1 ; field requested: IC50 at 72 h
Response: 70.7

----------
- Test system: UACC-62
- assay explanation: Antiproliferative activity against human UACC-62 cells assessed as inhibition of cell proliferation measured after 48 hrs by SRB assay
- Format: functional, cell-based
- condition notes: UACC-62, 48 h
metric: pIC50
Bear in mind: pIC50 is minus log10 of a mol/L concentration; give just that figure.

Query: Query (compound): Cc1cnnn1-c1ccc(C(=O)Nc2ncc(Cc3ccccc3)s2)cc1 ; field requested: pIC50
Response: 5.48

----------
- Tested on: K562
- assay explanation: Antiproliferative activity against human K562 cells assessed as inhibition of cell proliferation measured after 72 hrs by MTT assay
- Assay type: functional, cell-based
- condition notes: K562, 72 h
Consider the following molecules; for each one, report its IC50.
Provide only the numeric value, understood in µM.

Query: Query (molecule): O=C(Nc1ncc(Cc2cccc(C(F)(F)F)c2)s1)c1ccc(-n2cnnn2)cc1 ; field requested: IC50
Response: 23.7

Query: Query (molecule): O=C(Nc1ncc(Cc2ccc(F)cc2)s1)c1ccc(-n2cnnn2)cc1 ; field requested: IC50
Response: 0.7

Query: Query (molecule): Cc1cccc(Cc2cnc(NC(=O)c3ccc(-n4cnnn4)cc3)s2)c1 ; field requested: IC50
Response: 20.1

Query: Query (molecule): O=C(Nc1ncc(Cc2cc(Cl)ccc2Cl)s1)c1ccc(-n2cnnn2)cc1 ; field requested: IC50
Response: 7.57

----------
Consider the following compounds; for each one, report its IC50.
- Tested on: K562
- assay explanation: Antiproliferative activity against human K562 cells assessed as inhibition of cell proliferation measured after 72 hrs by MTT assay
- Format: functional, cell-based
- condition notes: K562, 72 h

Query: Query (compound): O=C(Nc1ncc(Cc2ccccc2)s1)c1ccc(-n2cnnn2)cc1O ; field requested: IC50
Response: > 100 µM

Query: Query (compound): Cc1cccc(Cc2cnc(NC(=O)c3cccc(-n4cnnn4)c3)s2)c1 ; field requested: IC50
Response: > 100 µM

Query: Query (compound): Cc1nnnn1-c1ccc(C(=O)Nc2ncc(Cc3ccccc3)s2)cc1 ; field requested: IC50
Response: > 100 µM
